Hi! I'm sharing some IC50 results obtained with Cytochrome P450 2C9 (Homo sapiens).
Sequence (P11712 whole entry): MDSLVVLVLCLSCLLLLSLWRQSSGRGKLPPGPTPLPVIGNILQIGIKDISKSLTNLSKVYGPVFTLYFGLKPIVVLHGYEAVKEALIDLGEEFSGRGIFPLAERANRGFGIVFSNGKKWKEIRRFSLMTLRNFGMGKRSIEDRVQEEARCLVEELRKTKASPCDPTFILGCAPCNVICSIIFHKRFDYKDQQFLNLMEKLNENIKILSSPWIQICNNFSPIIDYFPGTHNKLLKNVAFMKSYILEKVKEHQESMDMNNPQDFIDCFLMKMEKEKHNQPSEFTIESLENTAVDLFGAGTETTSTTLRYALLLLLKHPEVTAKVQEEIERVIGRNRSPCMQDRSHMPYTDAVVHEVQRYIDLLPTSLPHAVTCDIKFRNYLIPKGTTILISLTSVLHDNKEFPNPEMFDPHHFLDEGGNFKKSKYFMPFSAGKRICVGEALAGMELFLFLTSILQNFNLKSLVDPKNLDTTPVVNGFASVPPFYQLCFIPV

Examples with their reported IC50 follow.
1. CC(C)(C)OC(=O)N1CCC2(CC1)CC2CNC(=O)c1cnc2nccn2c1 (racemic) = > 10 µM
2. CS(=O)(=O)c1ccc(CNC(=O)c2cc3cnccc3[nH]2)cc1 = 0.2 µM
3. [2H]C1([2H])c2ccncc2C([2H])([2H])N1C(=O)NCC1CC12CCN(C(=O)OC1(C)COC1)CC2 (racemic) = > 10 µM
4. CN1CCC(c2ccc(C(=O)N3CCC4(CC3)CC4CNC(=O)N3Cc4ccncc4C3)cc2)CC1 (racemic) = > 10 µM
5. O=C(NCc1ccc(S(=O)(=O)c2cccc(C(F)(F)F)c2)cc1)c1cnc2[nH]ncc2c1 = 0.07 µM

Entry Nc1cc2c(cn1)CN(C(=O)NCc1ccc(S(=O)(=O)c3ccccc3)cc1)C2 ; assay system Cytochrome P450 2C9 (Homo sapiens); IC50 recorded at > 10 µM

Entry CC1(OC(=O)N2CCC3(CC2)C[C@@H]3CNC(=O)N2Cc3ccncc3C2)COC1 ; assay system Cytochrome P450 2C9 (Homo sapiens); IC50 recorded at > 10 µM

Entry O=C(NCC1CC12CCN(C(=O)c1ccccc1)CC2)N1Cc2ccncc2C1 (racemic) ; assay system Cytochrome P450 2C9 (Homo sapiens); IC50 recorded at > 10 µM

Entry CC(C)(C)CC(=O)N1CCC2(CC1)CC2CNC(=O)N1Cc2ccncc2C1 (racemic) ; assay system Cytochrome P450 2C9 (Homo sapiens); IC50 recorded at > 10 µM

###

- assay: Clearance in Beagle dog at 0.5 mg/kg, iv
- Assay type: ADME, organism-based, Canis lupus familiaris
- experimental.parameters: in vivo
test.readout: clearance (mL/min/kg)
Write down the numeric answer in mL/min/kg and omit the unit.

// recorded clearance for CC1(OC(=O)N2CCC3(CC2)C[C@@H]3CNC(=O)N2Cc3ccncc3C2)COC1 : 10.8

###

- assay: Octanol-aqueous phosphate buffer distribution coefficient, log D of the compound at pH 7.4 after 1 hr by LC/MS/MS analysis
- Type: physicochemical
test.readout: logD at 1 h

Examples with their reported logD at 1 h follow.
1) Cc1ccc(CNC(=O)Nc2ccc(S(=O)(=O)c3ccccc3)cc2)cn1 = 2.4
2) CC(C)CNC(=O)c1cc2cnccc2[nH]1 = 1.7
3) O=C(NCc1ccc(S(=O)(=O)C2CCCCC2)cc1)N1Cc2ccncc2C1 = 2
4) CC1(OC(=O)N2CCC3(CC2)C[C@@H]3CNC(=O)N2Cc3ccncc3C2)COC1 = 1.2
5) O=C(NCc1ccc(S(=O)(=O)c2cc(F)cc(F)c2)cn1)c1cc2ccncc2o1 = 2.6

[P] NS(=O)(=O)c1ccc(CNC(=O)c2cc3cnccc3[nH]2)cc1
[Q] O=C(NCc1ccc([S@@+]([O-])c2cc(F)cc(F)c2)cn1)c1cc2ccncc2o1
Enquiry: Hello, I am sorting some records. Could you say if P or Q has the smaller logD at 1 h value? Record your answer as the label of the chosen record.
Return: P
(P: 0.6, Q: 2)

[a] CS(=O)(=O)c1ccc(CNC(=O)c2cc3cnccc3[nH]2)cc1
[b] O=C(NCc1ccccc1)c1cc2cnccc2[nH]1
Enquiry: Of a and b , whose reported logD at 1 h is the larger number? Record your answer as the label of the chosen record.
Return: b
(b: 2.2, a: 0.8)

###

- system: UniProtKB P33261
- Sequence (P33261 whole entry): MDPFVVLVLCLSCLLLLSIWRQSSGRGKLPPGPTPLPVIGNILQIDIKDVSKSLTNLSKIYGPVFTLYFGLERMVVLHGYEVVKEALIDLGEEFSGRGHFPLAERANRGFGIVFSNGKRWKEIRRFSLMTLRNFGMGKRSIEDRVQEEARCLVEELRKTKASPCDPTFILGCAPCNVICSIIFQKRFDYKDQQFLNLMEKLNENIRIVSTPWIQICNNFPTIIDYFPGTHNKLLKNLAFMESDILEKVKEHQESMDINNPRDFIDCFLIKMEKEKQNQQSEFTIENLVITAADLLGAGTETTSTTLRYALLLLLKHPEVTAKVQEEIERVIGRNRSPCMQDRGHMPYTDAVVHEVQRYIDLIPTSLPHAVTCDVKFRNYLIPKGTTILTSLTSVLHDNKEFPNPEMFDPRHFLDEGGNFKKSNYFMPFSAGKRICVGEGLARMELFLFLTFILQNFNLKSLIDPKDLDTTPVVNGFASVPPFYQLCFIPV
- assay: Reversible inhibition of CYP2C19 in human liver microsomes using […] as substrate in presence of NADPH by LC-MS/MS analysis
- Type: ADME
test.readout: IC50

// recorded IC50 for CC1(OC(=O)N2CCC3(CC2)C[C@@H]3CNC(=O)N2Cc3ccncc3C2)COC1 : > 10 µM

###

- assay: Cmax in Beagle dog at 3 mg/kg, po
- Assay type: ADME, organism-based, Canis lupus familiaris
- Parameters: dose 3 mg/kg, route oral
- experimental.parameters: in vivo
test.readout: Cmax (µM)
Write down the numeric answer in µM and omit the unit.

// recorded Cmax for CC1(OC(=O)N2CCC3(CC2)C[C@@H]3CNC(=O)N2Cc3ccncc3C2)COC1 : 4.8

###

- assay: Apparent permeability from apical to basolateral side in MDCK cells at 10 uM by LC/MS/MS analysis
- Assay type: ADME, cell-based, Canis lupus familiaris
- experimental.parameters: dog
test.readout: Papp A→B at 10 µM (×10⁻⁶ cm/s)

1. CC1(OC(=O)N2CCC3(CC2)CC3CNC(=O)N2Cc3ccncc3C2)COC1 (racemic) = 11
2. O=C(NCC1CC12CCN(C(=O)c1ccccc1)CC2)N1Cc2ccncc2C1 (racemic) = 7.9
3. CC(C)CC(=O)N1CCC2(CC1)CC2CNC(=O)N1Cc2ccncc2C1 (racemic) = 7.3
4. Cc1ccncc1C(=O)N1CCC2(CC1)CC2CNC(=O)N1Cc2ccncc2C1 (racemic) = 0.3
5. CC1(O)CC(CC(=O)N2CCC3(CC2)CC3CNC(=O)N2Cc3ccncc3C2)C1 (racemic) = 0.2
6. CC(C)(C)OC(=O)N1CCC2(CC1)CC2CNC(=O)c1cc2ccncc2o1 (racemic) = 16
7. CC1(OC(=O)N2CCC3(CC2)C[C@H]3CNC(=O)N2Cc3ccncc3C2)COC1 = 11
8. CC1(CC(=O)N2CCC3(CC2)CC3CNC(=O)N2Cc3ccncc3C2)COC1 (racemic) = 1.4
9. Cc1nn(C)c(C)c1C(=O)N1CCC2(CC1)CC2CNC(=O)N1Cc2ccncc2C1 (racemic) = 0.2
10. CC1(CC(=O)N2CCC3(CC2)CC3CNC(=O)N2Cc3ccncc3C2)CCOCC1 (racemic) = 1

[a] O=C(NCc1cccnc1)Nc1ccc(S(=O)(=O)c2ccccc2)cc1
[b] Cc1nn(C)cc1C(=O)N1CCC2(CC1)CC2CNC(=O)N1Cc2ccncc2C1 (racemic)
[c] Cc1c(C(=O)N2CCC3(CC2)CC3CNC(=O)N2Cc3ccncc3C2)cnn1C (racemic)
[d] CC(C)(C)CC(=O)N1CCC2(CC1)CC2CNC(=O)N1Cc2ccncc2C1 (racemic)
Enquiry: // sort entries: Papp A→B at 10 µM, high to low Your answer should be the labels, listed in the requested order.
Return: d, a, c, b
(d: 9.2 ×10⁻⁶ cm/s, a: 3.1 ×10⁻⁶ cm/s, c: 0.3 ×10⁻⁶ cm/s, b: 0.2 ×10⁻⁶ cm/s)

###

- system: Cytochrome P450 2D6 (Homo sapiens, UniProt P10635)
- Sequence (P10635 whole entry): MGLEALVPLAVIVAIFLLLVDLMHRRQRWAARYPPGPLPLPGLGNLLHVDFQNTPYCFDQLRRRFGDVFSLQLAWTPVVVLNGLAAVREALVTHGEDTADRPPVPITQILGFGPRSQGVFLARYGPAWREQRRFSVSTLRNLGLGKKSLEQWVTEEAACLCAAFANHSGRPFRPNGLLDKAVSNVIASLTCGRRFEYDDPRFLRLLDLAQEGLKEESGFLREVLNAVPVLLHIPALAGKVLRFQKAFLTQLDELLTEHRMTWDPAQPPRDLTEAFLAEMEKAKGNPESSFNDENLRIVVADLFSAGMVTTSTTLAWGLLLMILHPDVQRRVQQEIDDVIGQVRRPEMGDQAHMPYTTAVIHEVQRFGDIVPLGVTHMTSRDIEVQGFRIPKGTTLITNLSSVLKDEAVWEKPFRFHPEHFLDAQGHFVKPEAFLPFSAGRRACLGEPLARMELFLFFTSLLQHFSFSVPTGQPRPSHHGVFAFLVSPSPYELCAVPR
- assay: Reversible inhibition of CYP2D6 in human liver microsomes using […] as substrate in presence of NADPH by LC-MS/MS analysis
- Type: ADME
test.readout: IC50

// recorded IC50 for CC1(OC(=O)N2CCC3(CC2)C[C@@H]3CNC(=O)N2Cc3ccncc3C2)COC1 : > 10 µM

###

- assay: AUC in Beagle dog at 3 mg/kg, po
- Type: ADME, organism-based, Canis lupus familiaris
- experimental.parameters: in vivo
test.readout: AUC (µM·h)
Write down the numeric answer in µM·h and omit the unit.

// recorded AUC for CC1(OC(=O)N2CCC3(CC2)C[C@@H]3CNC(=O)N2Cc3ccncc3C2)COC1 : 10.5

###

- assay: Protein binding in cynomolgus monkey plasma at 5 uM after 4 hrs by rapid equilibrium dialysis based LC-MS/MS analysis
- Format: ADME, cell-free, Macaca fascicularis
- experimental.parameters: read-out: PPB (converted)
test.readout: fraction unbound at 4 h, 5 µM
Could you respond with only the numeric value?

// recorded fraction unbound at 4 h, 5 µM for CC1(OC(=O)N2CCC3(CC2)C[C@@H]3CNC(=O)N2Cc3ccncc3C2)COC1 : 0.46

###

- assay: AUC in Sprague-Dawley rat at 5 mg/kg, po
- Type: ADME, organism-based
- experimental.parameters: in vivo
test.readout: AUC (µM·h)
Write down the numeric answer in µM·h and omit the unit.

// recorded AUC for CC1(OC(=O)N2CCC3(CC2)C[C@@H]3CNC(=O)N2Cc3ccncc3C2)COC1 : 0.55

###

- assay: Octanol-aqueous phosphate buffer distribution coefficient, log D of the compound at pH 7.4 after 1 hr by LC/MS/MS analysis
- Format: physicochemical
test.readout: logD at 1 h

1. O=C(NCC1CCCCC1)c1cc2cnccc2[nH]1 = 3.1
2. O=C(NCc1ccc(NS(=O)(=O)C2CCCC2)cc1)c1cc2cnccc2[nH]1 = 2.5
3. CN(C)C(=O)c1cccc(COc2ccc(CNC(=O)c3cc4cnccc4[nH]3)cc2)c1 = 2.5
4. O=C(NCc1cccnc1)Nc1ccc(S(=O)(=O)c2ccccc2)cc1 = 2.7

[1] Nc1ccc(CNC(=O)Nc2ccc(S(=O)(=O)c3ccccc3)cc2)cn1
[2] O=C(NCc1ccc(C(=O)N2CCCC2)cc1)c1cc2cnccc2[nH]1
Enquiry: Hello, I am sorting some records. Could you say if 1 or 2 has the smaller logD at 1 h value? Record your answer as the label of the chosen record.
Return: 2
(2: 1.6, 1: 2.7)
